target: BRM (Homo sapiens, UniProt P51531); experiment: ATPase catalytic activity assay of BRM (ADP-Glo); assay type: biochemical; conditions: read-out: BRM IC50 (μM)*
Sequence (P51531 whole entry): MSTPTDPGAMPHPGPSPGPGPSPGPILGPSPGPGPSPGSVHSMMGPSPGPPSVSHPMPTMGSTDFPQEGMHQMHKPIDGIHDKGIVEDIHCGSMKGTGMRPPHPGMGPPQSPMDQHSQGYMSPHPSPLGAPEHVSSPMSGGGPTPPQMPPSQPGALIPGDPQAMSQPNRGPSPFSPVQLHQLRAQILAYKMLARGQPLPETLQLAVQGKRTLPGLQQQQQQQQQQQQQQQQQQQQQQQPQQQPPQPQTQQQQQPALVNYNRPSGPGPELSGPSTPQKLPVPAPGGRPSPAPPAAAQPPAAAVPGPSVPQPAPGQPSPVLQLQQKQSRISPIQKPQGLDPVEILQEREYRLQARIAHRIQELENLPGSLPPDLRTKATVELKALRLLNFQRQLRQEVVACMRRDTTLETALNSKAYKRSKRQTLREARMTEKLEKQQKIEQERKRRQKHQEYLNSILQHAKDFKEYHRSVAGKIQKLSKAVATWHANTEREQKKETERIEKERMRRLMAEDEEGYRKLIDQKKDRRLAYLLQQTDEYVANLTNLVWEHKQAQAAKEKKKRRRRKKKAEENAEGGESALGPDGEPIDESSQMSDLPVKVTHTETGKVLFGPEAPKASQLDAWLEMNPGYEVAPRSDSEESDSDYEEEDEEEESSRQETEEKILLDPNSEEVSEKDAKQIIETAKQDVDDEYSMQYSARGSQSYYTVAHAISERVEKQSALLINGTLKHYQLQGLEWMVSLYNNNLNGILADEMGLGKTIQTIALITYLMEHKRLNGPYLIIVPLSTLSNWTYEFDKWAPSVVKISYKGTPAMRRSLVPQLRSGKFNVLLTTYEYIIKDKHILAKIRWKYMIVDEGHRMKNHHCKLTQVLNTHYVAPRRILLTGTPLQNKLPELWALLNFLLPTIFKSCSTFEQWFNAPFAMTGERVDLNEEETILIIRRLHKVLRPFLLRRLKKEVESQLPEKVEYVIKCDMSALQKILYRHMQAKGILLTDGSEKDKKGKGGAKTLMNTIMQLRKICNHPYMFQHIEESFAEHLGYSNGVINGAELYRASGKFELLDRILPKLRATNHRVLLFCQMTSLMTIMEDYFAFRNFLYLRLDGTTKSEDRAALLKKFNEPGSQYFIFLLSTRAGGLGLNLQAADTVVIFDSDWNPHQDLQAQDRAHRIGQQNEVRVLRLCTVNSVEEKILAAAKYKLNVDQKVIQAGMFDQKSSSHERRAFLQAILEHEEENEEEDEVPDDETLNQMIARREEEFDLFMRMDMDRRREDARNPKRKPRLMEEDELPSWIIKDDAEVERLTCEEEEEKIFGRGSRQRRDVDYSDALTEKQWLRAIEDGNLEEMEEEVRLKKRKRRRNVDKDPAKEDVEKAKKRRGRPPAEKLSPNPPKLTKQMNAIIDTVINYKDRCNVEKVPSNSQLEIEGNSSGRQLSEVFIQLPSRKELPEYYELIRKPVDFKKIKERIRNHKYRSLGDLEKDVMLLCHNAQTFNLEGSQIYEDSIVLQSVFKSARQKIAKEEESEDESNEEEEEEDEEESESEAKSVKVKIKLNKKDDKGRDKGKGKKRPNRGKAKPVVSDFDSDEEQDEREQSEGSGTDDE
assay.metric: IC50

Illustrative cases are given below, each with its answer.
- molecule: "C[C@@]1(C#N)COCc2ccc(C(=O)NCC(=O)Nc3nc(-c4cccc(C56CCOCC5C6)c4)cs3)cc21 (stereo partly shown) [Compound 305]"
  IC50: "< 0.1 µM"
- molecule: "C[C@@]1(C#N)COCc2ccc(C(=O)NCC(=O)Nc3nc(-c4cccc([C@H]5CC5(F)F)n4)cs3)cc21 [Compound 387]"
  IC50: "< 0.1 µM"
- molecule: "Cc1cc(-c2cccc(-c3csc(NC(=O)CNC(=O)c4cccc(C(C)(C)CO)c4)n3)c2)nc(C)n1 [Compound 93]"
  IC50: "< 0.1 µM"

Lookup: Determine from records and report IC50 for COc1cccc(-c2csc(NC(=O)CNC(=O)c3cc(F)c4c(c3)[C@@](C)(C#N)COC4)n2)c1 [Compound 269]
Found: 0.1 to 1 µM

Lookup: Determine from records and report IC50 for COc1cccc(-c2csc(NC(=O)CNC(=O)c3ccc4c(c3)C(C)(C#N)CCN4C)n2)c1 (stereo not shown) [Compound 394]
Found: 0.1 to 1 µM

Lookup: Determine from records and report IC50 for CC(C)S(=O)(=O)c1cccc(C(=O)NCC(=O)Nc2nc(-c3cccc(-c4cc(C#N)cc(CO)c4)c3)cs2)c1 [Compound 23]
Found: 0.1 to 1 µM

Lookup: Determine from records and report IC50 for C[C@]1(CN)CCc2c(C(=O)NCC(=O)Nc3nc(-c4cccc(-c5ccncc5)c4)cs3)cccc21 [Compound 243]
Found: 0.1 to 1 µM

* * *

Reported Emax values follow for various molecules
molecular target: BRG-1 (Homo sapiens); assay: ATPase catalytic activity assay of BRG-1 (ADP-Glo); type: biochemical; details: ATPase catalytic activity, ADP-Glo; read-out: BRG1 Max % Inhibition

- molecule: "Cc1nccc(-c2cccc(-c3csc(NC(=O)CNC(=O)c4ccc5c(c4)[C@@](C)(C#N)CC5)n3)n2)n1 [Compound 268]"
  Emax: "> 50%"
- molecule: "C[C@@H]1CN(c2cccc(-c3csc(NC(=O)CNC(=O)c4ccc5c(c4)C(C)(C#N)CNC5)n3)c2)C[C@H](C)O1 (stereo partly shown) [Compound 310]"
  Emax: "> 95%"
- molecule: "CN1CCOc2ccc(-c3csc(NC(=O)CNC(=O)c4ccc5c(c4)[C@@](C)(CO)CC5)n3)cc21 [Compound 174]"
  Emax: "> 50%"
- molecule: "CC(NC(=O)c1ccc2c(c1)[C@](C)(F)COC2)C(=O)Nc1nc(-c2cccc(N3CCC3)c2)cs1 (stereo in doubt) [Compound 319]"
  Emax: "> 95%"

Lookup: Check BRG-1 (Homo sapiens) data and give Emax for CC(C)S(=O)(=O)c1cccc(C(=O)NCC(=O)Nc2nc(-c3cccc(N4C[C@@H](C)O[C@@H](C)C4)c3)cs2)c1 [Compound 14] .
Found: > 80%

Lookup: Check BRG-1 (Homo sapiens) data and give Emax for Cn1ccc(-c2cccc(-c3csc(NC(=O)CNC(=O)c4ccc5c(c4)[C@@](C)(CO)CC5)n3)n2)n1 [Compound 192] .
Found: > 60%

Lookup: Check BRG-1 (Homo sapiens) data and give Emax for CC(C)(CO)c1cccc(C(=O)NCC(=O)Nc2nc(-c3cccc(-c4ccncc4)c3)cs2)c1 [Compound 73] .
Found: > 80%

Lookup: Check BRG-1 (Homo sapiens) data and give Emax for C[C@@H]1CN(c2cccc(-c3csc(NC(=O)CNC(=O)c4ccc5c(c4)C(C)(CO)COC5)n3)c2)C[C@H](C)O1 (stereo in doubt) [Compound 373] .
Found: > 90%

* * *

biological target: BRG-1 (Homo sapiens, UniProt P51532); experiment: ATPase catalytic activity assay of BRG-1 (ADP-Glo); type: biochemical; details: ATPase catalytic activity, ADP-Glo; read-out: BRG1 Max % Inhibition
Sequence (P51532 whole entry): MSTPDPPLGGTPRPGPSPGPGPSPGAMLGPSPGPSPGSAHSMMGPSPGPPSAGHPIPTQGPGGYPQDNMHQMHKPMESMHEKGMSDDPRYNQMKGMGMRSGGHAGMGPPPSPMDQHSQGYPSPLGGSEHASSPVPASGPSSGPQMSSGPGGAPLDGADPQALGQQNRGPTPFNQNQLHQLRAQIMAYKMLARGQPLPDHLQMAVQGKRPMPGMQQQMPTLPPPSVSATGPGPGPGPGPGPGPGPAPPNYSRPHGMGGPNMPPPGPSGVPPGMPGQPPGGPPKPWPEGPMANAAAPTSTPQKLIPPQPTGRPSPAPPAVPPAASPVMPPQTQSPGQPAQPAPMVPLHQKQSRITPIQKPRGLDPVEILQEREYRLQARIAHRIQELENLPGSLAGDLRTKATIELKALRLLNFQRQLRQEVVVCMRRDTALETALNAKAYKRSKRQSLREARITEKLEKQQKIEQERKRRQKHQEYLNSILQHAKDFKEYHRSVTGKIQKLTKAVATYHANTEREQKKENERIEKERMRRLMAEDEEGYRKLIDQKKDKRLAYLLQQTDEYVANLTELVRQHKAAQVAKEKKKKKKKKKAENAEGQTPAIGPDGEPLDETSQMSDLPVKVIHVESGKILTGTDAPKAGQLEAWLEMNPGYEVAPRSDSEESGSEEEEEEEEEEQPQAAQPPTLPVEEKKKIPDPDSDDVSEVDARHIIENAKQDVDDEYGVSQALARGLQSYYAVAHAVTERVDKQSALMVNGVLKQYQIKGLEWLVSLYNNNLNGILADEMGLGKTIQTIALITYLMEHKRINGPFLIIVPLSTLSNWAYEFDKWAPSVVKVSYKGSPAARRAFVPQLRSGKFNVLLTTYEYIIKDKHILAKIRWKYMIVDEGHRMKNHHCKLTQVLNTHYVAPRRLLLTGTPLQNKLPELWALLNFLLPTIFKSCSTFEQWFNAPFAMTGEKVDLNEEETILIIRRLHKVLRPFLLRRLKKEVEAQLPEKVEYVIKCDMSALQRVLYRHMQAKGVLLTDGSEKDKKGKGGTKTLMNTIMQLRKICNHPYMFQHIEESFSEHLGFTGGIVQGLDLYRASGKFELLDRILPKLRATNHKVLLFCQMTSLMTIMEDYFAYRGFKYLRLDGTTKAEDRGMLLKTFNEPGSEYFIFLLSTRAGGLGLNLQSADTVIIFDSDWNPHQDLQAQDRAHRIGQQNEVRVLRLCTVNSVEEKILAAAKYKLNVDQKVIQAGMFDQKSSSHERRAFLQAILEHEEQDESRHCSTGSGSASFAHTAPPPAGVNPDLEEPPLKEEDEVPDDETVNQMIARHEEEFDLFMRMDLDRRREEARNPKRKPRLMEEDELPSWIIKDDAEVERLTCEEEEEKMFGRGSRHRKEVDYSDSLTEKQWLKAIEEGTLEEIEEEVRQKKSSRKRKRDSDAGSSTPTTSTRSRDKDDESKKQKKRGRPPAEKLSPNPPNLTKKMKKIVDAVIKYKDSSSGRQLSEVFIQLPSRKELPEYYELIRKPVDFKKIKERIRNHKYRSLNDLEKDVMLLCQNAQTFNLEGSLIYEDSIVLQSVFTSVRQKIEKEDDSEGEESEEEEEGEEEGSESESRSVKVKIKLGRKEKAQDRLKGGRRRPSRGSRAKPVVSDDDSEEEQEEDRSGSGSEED
Reported Emax values follow for various molecules

Lookup: Determine from records and report Emax for CC(=O)N(C)c1cc(-c2cccc(-c3csc(NC(=O)CNC(=O)c4cccc(C(C)(C)CN)c4)n3)c2)ccn1
Found: > 70%

Lookup: Determine from records and report Emax for C[C@@]1(C#N)COCc2ccc(C(=O)NCC(=O)Nc3nc(-c4cccc(C56CCOCC5C6)c4)cs3)cc21 (stereo partly shown)
Found: > 95%

Lookup: Determine from records and report Emax for Cc1cc(C(=O)NCC(=O)Nc2nc(-c3cccc(-c4ccncc4)c3)cs2)cc(S(=O)(=O)C(C)C)c1C
Found: < 30%

Lookup: Determine from records and report Emax for C[C@@H]1CN(c2cccc(-c3csc(NC(=O)CNC(=O)c4cccc(C5(C(F)F)CCCO5)c4)n3)c2)C[C@H](C)O1 (stereo partly shown)
Found: > 95%

Lookup: Determine from records and report Emax for C[C@@]1(F)COCc2ccc(C(=O)NCC(=O)Nc3nc(C4CCOCC4)cs3)cc21
Found: > 85%

Lookup: Determine from records and report Emax for COc1cc(-c2cccc(-c3csc(NC(=O)CNC(=O)c4cccc(S(=O)(=O)C(C)C)c4)n3)c2)nc(C)n1
Found: > 80%

Lookup: Determine from records and report Emax for C[C@@H]1CN(c2cccc(-c3csc(NC(=O)CNC(=O)c4cccc(C(C)(C)C)c4)n3)c2)C[C@H](C)O1
Found: > 90%

* * *

target: BRM (Homo sapiens); assay: ATPase catalytic activity assay of BRM (ADP-Glo); type: biochemical
assay.metric: BRM Max % Inhibition

- molecule: "C[C@@H]1CN(c2cccc(-c3csc(NC(=O)CNC(=O)c4cccc5c4OCC[C@]5(C)C#N)n3)c2)C[C@H](C)O1"
  assayed.target: "BRM (Homo sapiens)"
  observed.result: ">70%"

Lookup: Determine from records and report BRM Max % Inhibition for CC(C)(C#N)c1cccc(C(=O)NCC(=O)Nc2nc(-c3cccc(-c4ccncc4)c3)cs2)c1
Found: >80%

Lookup: Determine from records and report BRM Max % Inhibition for C[C@@H]1CN(c2cccc(-c3csc(NC(=O)CNC(=O)c4ccc5c(c4)[C@](F)(C#N)COC5)n3)n2)C[C@H](C)O1 (single isomer, unassigned)
Found: >95%

* * *

biological target: BRM (Homo sapiens); assay: ATPase catalytic activity assay of BRM (ADP-Glo); type: biochemical; details: read-out: BRM IC50 (μM)*
assay.metric: IC50

- compound: "Cc1nccc(-c2cccc(-c3csc(NC(=O)CNC(=O)c4cccc(S(=O)(=O)C(C)C)c4)n3)c2)n1 [Compound 13]"
  assay.metric: "IC50"
  observed.result: "< 0.1 µM"
- compound: "C[C@@H]1CN(c2cccc(-c3csc(NC(=O)CNC(=O)c4cnc5c(c4)[C@@](C)(CO)CC5)n3)c2)C[C@H](C)O1 [Compound 144]"
  assay.metric: "IC50"
  observed.result: "0.1 to 1 µM"

Lookup: Determine from records and report IC50 for C[C@@H]1CN(c2cccc(-c3csc(NC(=O)CNC(=O)c4ccc(Cl)c(C(C)(C)CO)c4)n3)n2)C[C@H](C)O1 [Compound 241]
Found: < 0.1 µM

Lookup: Determine from records and report IC50 for Cc1ccc(C(=O)NCC(=O)Nc2nc(-c3cccc(N4C[C@@H](C)O[C@@H](C)C4)c3)cs2)cc1C(C)(C)CO [Compound 238]
Found: < 0.1 µM

Lookup: Determine from records and report IC50 for C[C@@H]1CN(c2cccc(-c3csc(NC(=O)CNC(=O)c4ccc5c(c4)S(=O)(=O)CCCC5)n3)c2)C[C@H](C)O1 [Compound 128]
Found: < 0.1 µM

Lookup: Determine from records and report IC50 for C[C@@H]1CN(c2cccc(-c3csc(NC(=O)CNC(=O)c4ccc5c(c4)[C@](F)(C#N)COC5)n3)n2)C[C@H](C)O1 (single isomer, unassigned) [Compound 298]
Found: 0.1 to 1 µM

* * *

Reported BRM Max % Inhibition values follow for various compounds
biological target: BRM (Homo sapiens); assay: ATPase catalytic activity assay of BRM (ADP-Glo); type: biochemical

- compound: "C[C@@H]1CN(c2cccc(-c3csc(NC(=O)CNC(=O)c4cc(C(C)(C)C)ccn4)n3)c2)C[C@H](C)O1 [Compound 202]"
  BRM Max % Inhibition: ">90%"
- compound: "C[C@@]1(C#N)COCc2ccc(C(=O)NCC(=O)Nc3nc(-c4cccc(N5CC6(CCO6)C5)c4)cs3)cc21 [Compound 348]"
  BRM Max % Inhibition: ">95%"
- compound: "C[C@@H]1CN(c2cccc(-c3csc(NC(=O)CNC(=O)c4cccc(C5(C(F)F)CCCO5)c4)n3)c2)C[C@H](C)O1 (some centres unmarked) [Compound 306]"
  BRM Max % Inhibition: ">95%"

Lookup: Determine from records and report BRM Max % Inhibition for Cc1cc(-c2cccc(-c3csc(NC(=O)CNC(=O)c4cccc(S(=O)(=O)C(C)CN)c4)n3)c2)cc(C)n1 (centres unmarked) [Compound 114]
Found: >90%

Lookup: Determine from records and report BRM Max % Inhibition for COc1cc(-c2csc(NC(=O)CNC(=O)c3ccc4c(c3)[C@](C)(C#N)COC4)n2)ccn1 [Compound 400]
Found: >95%

Lookup: Determine from records and report BRM Max % Inhibition for Cc1cc(-c2cccc(-c3csc(NC(=O)CNC(=O)c4cccc(C(C)(C)CO)c4)n3)c2)nc(C)n1 [Compound 94]
Found: >95%

Lookup: Determine from records and report BRM Max % Inhibition for Cc1cnc(O)c(-c2cccc(-c3csc(NC(=O)CNC(=O)c4ccc5c(c4)[C@](C)(CO)CC5)n3)n2)c1 [Compound 263]
Found: >80%

Lookup: Determine from records and report BRM Max % Inhibition for O=C(CNC(=O)c1cccc(C2(C(F)F)COC2)c1)Nc1nc(-c2cccc(C(F)F)c2)cs1 [Compound 344]
Found: >95%

Lookup: Determine from records and report BRM Max % Inhibition for CC(=O)N1CC(c2cccc(-c3csc(NC(=O)CNC(=O)c4ccc5c(c4)[C@](C)(C#N)COC5)n3)c2)C1 [Compound 379]
Found: >95%

Lookup: Determine from records and report BRM Max % Inhibition for CCC(C)(CO)c1cccc(C(=O)NCC(=O)Nc2nc(-c3cccc(-c4ccncc4)c3)cs2)c1 (centres unmarked) [Compound 242]
Found: >80%

Lookup: Determine from records and report BRM Max % Inhibition for C[C@@]1(C#N)COCc2ccc(C(=O)NCC(=O)Nc3nc(-c4cccc(C5CCO5)c4)cs3)cc21 (some centres unmarked) [Compound 365]
Found: >95%

Lookup: Determine from records and report BRM Max % Inhibition for CCS1(=O)=NCc2ccc(C(=O)NCC(=O)Nc3nc(-c4cccc(N5C[C@@H](C)O[C@@H](C)C5)c4)cs3)cc21 (some centres unmarked) [Compound 367]
Found: >85%

Lookup: Determine from records and report BRM Max % Inhibition for C[C@@H]1CN(c2cccc(-c3csc(NC(=O)CNC(=O)c4cccc([C@]5(F)C[C@H](O)C5)c4)n3)c2)C[C@H](C)O1 [Compound 150]
Found: >95%

Lookup: Determine from records and report BRM Max % Inhibition for CN1C(=O)CCc2ccc(-c3csc(NC(=O)CNC(=O)c4ccc5c(c4)[C@@](C)(CO)CC5)n3)cc21 [Compound 260]
Found: >60%
